Target: Short transient receptor potential channel 4 (Mus musculus)
Experiment: activators of mouse TRPC4 channel, primary screen, Fluo4 calcium, HEK293 TRPC4beta/mu-opioid cells (AID 2237)
Conditions: Fluo4 calcium fluorescence, at 10 µM
Screen size: about 310,000 compounds; about 1,500 (0.48%) were called active.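 The calls were made as follows: active = B-score above 5 SD of library B-scores, and initial fluorescence ratio not above library mean plus 5 SD; inactive = the rest.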 For the sample, actives were picked, then their nearest neighbours and some compounds at random.
API: response.call in active, inactive

A selection of reference data follows.
COc1cccc(CC2(CO)CCCN(Cc3nc(-c4cccs4)oc3C)C2)c1 (configuration not stated): inactive
C=CCc1ccc(OCCOc2cccc(/C=N/n3cnnc3)c2)c(OC)c1: inactive
O=C(OCCN=C1NS(=O)(=O)c2ccccc21)c1cccc([N+](=O)[O-])c1: inactive
O=C(CCCN=C1NS(=O)(=O)c2ccccc21)OCC(=O)c1ccc(F)c(F)c1: active

Shift focus to the following entry.
Dear all, I need the recorded test outcome for `CCOc1ccccc1-c1nc(CN2CCC(C(=O)N3CCOCC3)CC2)c(C)o1` , thank you.
inactive

---

Molecular target: Short transient receptor potential channel 4 (Mus musculus)
Assay: activators of mouse TRPC4 channel, primary screen, Fluo4 calcium, HEK293 TRPC4beta/mu-opioid cells (AID 2237)
Details: Fluo4 calcium fluorescence, at 10 µM
Among all 310,000 compounds or so, about 1,500 (0.48%) were called active.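 How the source made its calls: active means B-score above 5 SD of library B-scores, and initial fluorescence ratio not above library mean plus 5 SD; inactive means the rest.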 Only a selection was taken, and actives are over-represented in it overall.
API: response.call in label 1 (active), label 0 (inactive)

Reference set (10 entries):
CC(C)N(Cc1nnc(-c2ccc(Cl)cc2)o1)C(=O)C1=COCCO1: label 0
CSc1ccc(S(=O)(=O)N2CCC(C(=O)NCCc3ccccc3)CC2)cc1: label 0
CC1CCN(CC(=O)Nc2nccs2)CC1: label 0
CC(=O)N1CC2(C)CN(C(C)=O)CC(C)(C1)C2=O: label 0
Cc1ccc(OCC(=O)NNC(=S)NCc2ccccc2)cc1: label 0
COc1ccc(C)cc1NC(=O)Nc1ccccc1SC: label 0
Cc1ccc(S(=O)(=O)NCCC(=O)NNC(=O)C2COc3ccccc3O2)cc1 (stereo not given): label 0
CCC1(CC)Cc2ccccc2-c2nc(CCl)[nH]c(=O)c21: label 0
COC(=O)N/N=C/c1c[n+]([O-])c2ccccc2[n+]1[O-]: label 0
COc1ccc(N(CC(=O)Nc2ccc(C)cc2C)S(=O)(=O)c2ccccc2[N+](=O)[O-])c(OC)c1: label 0

Now consider the entry below.
Which result was noted for this molecule in the test: `NC(=O)CSc1nnc(NC(=O)c2ccc3ccccc3c2)s1`
label 0

---

Biological target: Short transient receptor potential channel 4 (Mus musculus) (UniProt Q9QUQ5)
Sequence (Q9QUQ5 whole entry, looked up): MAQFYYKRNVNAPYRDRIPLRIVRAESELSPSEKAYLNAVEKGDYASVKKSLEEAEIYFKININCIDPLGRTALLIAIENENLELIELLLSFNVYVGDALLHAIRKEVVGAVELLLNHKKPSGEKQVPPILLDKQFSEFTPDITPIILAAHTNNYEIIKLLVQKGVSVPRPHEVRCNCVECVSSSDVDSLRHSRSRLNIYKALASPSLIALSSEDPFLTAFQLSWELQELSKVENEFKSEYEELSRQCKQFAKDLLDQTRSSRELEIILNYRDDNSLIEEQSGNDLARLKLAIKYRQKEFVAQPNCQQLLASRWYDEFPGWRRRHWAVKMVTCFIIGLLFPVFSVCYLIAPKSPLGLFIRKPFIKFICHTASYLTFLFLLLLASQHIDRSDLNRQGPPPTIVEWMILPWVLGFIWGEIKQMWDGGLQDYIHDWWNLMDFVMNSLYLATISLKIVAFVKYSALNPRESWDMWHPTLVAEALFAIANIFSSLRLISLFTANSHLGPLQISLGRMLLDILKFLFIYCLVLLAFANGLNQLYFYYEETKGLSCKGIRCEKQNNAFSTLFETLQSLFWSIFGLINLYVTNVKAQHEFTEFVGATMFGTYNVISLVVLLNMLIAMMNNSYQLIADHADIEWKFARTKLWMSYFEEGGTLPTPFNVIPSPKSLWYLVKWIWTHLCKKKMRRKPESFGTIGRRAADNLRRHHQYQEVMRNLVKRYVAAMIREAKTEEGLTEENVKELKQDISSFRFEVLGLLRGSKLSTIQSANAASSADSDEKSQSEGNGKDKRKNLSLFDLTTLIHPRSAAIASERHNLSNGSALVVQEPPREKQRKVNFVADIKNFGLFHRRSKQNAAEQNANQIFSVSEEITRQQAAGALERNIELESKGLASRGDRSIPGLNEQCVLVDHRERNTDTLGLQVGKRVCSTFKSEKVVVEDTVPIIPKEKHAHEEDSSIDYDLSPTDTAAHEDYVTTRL
Assay: activators of mouse TRPC4 channel, primary screen, Fluo4 calcium, HEK293 TRPC4beta/mu-opioid cells (AID 2237)
Conditions: Fluo4 calcium fluorescence, at 10 µM
Among all 310,000 compounds or so, about 1,500 (0.48%) were called active.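 Rule for the calls: active = B-score above 5 SD of library B-scores, and initial fluorescence ratio not above library mean plus 5 SD; inactive = the rest.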 Shown is part of a subset that was picked to be rich in actives.
// allowed return values: y = active, n = inactive

O=c1[nH]c2ccccc2s1: n
O=C(CC(c1ccccc1)c1ccccc1)NCC(O)c1ccc([N+](=O)[O-])cc1 (configuration not stated): n
CCCCSc1[nH]c(=O)c(C(=O)OCC)cc1C#N: y
COc1ccc(-n2ncc3c(N4CCc5ccccc54)ncnc32)cc1: y
CCN(CC(=O)NCc1cccs1)C(=O)c1ccc(OC)c(S(=O)(=O)N2CCOCC2)c1: n
CCOC(=O)C1(CC2CCCCO2)CCN(Cc2nc(-c3cccs3)oc2C)CC1 (configuration not stated): y
c1ccc(-c2ccccc2OCCN2CCCCC2)cc1: n
S=C(Nc1ccc(Br)cc1)NC1CCN(Cc2ccccc2)CC1: n

Which outcome was assigned to `CN(C)CCNC(=O)Cc1ccc([N+](=O)[O-])cc1` in this test?
n

// param item: `O=C(COc1ccc(Br)cc1F)NC1CCN(Cc2ccccc2)CC1` ; yields the recorded call
n

Lab log entry: `COc1cc(SC#N)ccc1N=Cc1c(C)[nH]n(-c2ccc(C)cc2)c1=O` — outcome as called in the assay?
n

Each compound tested received a call. Report the one for `O=C(NCCN1C(=O)S/C(=C\c2cccnc2)C1=O)c1ccc(S(=O)(=O)N2CCCC2)cc1` .
n

Test call, this compound: `Cc1ccc(C(=O)CCC(=O)N(C)CC(=O)Nc2c(Cl)cccc2Cl)cc1`
n

Hi, sorry to bother you, what did the test record for `CC(C)Sc1ncnc2c1cnn2-c1ccccc1` ?
n

Dear colleague, could you share the recorded outcome for CC1CCCN(CCOCCOc2ccccc2-c2ccccc2)C1 (configuration not stated) when you have a moment?
y

What call does the record list for OCCC1CN(Cc2ccccc2-c2ccco2)CCN1Cc1ccsc1 (configuration not stated) ?
y

Test call, this compound: `CN(CC(=O)Nc1ccccc1Cl)C(=O)COc1cccc2c1OC(C)(C)C2`
n

---

Biological target: Short transient receptor potential channel 4 (Mus musculus)
Assay: activators of mouse TRPC4 channel, primary screen, Fluo4 calcium, HEK293 TRPC4beta/mu-opioid cells (AID 2237)
Conditions: Fluo4 calcium fluorescence, at 10 µM
Among all 310,000 compounds or so, about 1,500 (0.48%) were called active.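 The calls were made as follows: active = B-score above 5 SD of library B-scores, and initial fluorescence ratio not above library mean plus 5 SD; inactive = the rest.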 For the sample, actives were picked, then their nearest neighbours and some compounds at random.
Entry note: the call must match one of true (active), false (inactive)

Kindly provide the recorded test outcome for the following compound: `CCOc1ccc(NS(=O)(=O)c2ccc(C(=O)NC3CCN(Cc4ccccc4)CC3)cc2)cc1`
true

Query: recorded result category for `CCN(CC(=O)Nc1ccc(S(=O)(=O)N2CCCC2)cc1)CC(=O)Nc1cccc(OC)c1` in this test
false

Identify the outcome logged in this assay for the compound shown: CCN1C(=O)C(C(=O)NC(C)c2ccccc2)C2CC1(C)Oc1ccccc12 (centres undefined)
false

Record request — test call for `CCNS(=O)(=O)c1ccc(NC(=O)Nc2cccc(OC)c2)cc1`
true

Entry `COc1ccc(C(=O)NNC(=S)NC(=O)c2ccccc2[N+](=O)[O-])cc1` : call = ?
false

// param item: `CC1(C)N=C(c2ccccn2)C(C)(C)N1O` ; yields the recorded call
false

What did the test return for Cc1cc(-c2ccc(C)c(S(=O)(=O)NC(C)Cc3ccco3)c2)on1 (centres undefined) ?
false

# outcome recorded in this test, key = COc1ccc2c(c1)SC(C)CC2=O (centres undefined)
false

Which result was noted for this compound in the test: COC(=O)C(CC(=O)Nc1cc(C)ccc1C)Nc1ccccc1OC (centres undefined)
true

---

Target: Short transient receptor potential channel 4 (Mus musculus) (UniProt Q9QUQ5)
Assay: activators of mouse TRPC4 channel, primary screen, Fluo4 calcium, HEK293 TRPC4beta/mu-opioid cells (AID 2237)
Conditions: Fluo4 calcium fluorescence, at 10 µM
Hit rate of the full screen: of about 310,000 compounds, about 1,500 (0.48%) were called active.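 The calls were made as follows: active = B-score above 5 SD of library B-scores, and initial fluorescence ratio not above library mean plus 5 SD; inactive = the rest.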 The entries come from a sample that favours actives as a whole.
Log the outcome using a class from yes (active), no (inactive)

Record excerpt, results attached:
Cc1ccc(C23CC4CC(CC(C(=O)NCC(=O)O)(C4)C2)C3)cc1: no
COc1ccccc1/C=N/N1CCN(Cc2ccccc2Cl)CC1: no
NC(=O)c1cc2ccccc2o/c1=N/NC(=O)c1cccc(F)c1: no
O=C1CCCc2c1nc(-c1cccc(Cl)c1)n2O: no
Cc1cccc(-c2nc3ccccc3c(=O)n2NC(=O)Cc2ccc(Cl)cc2)c1: no
CCN1/C(=C\c2ccc3ccccc3[n+]2CC)Sc2cc(C)ccc21: yes
CCCn1c(C2CCCN2c2nc(-c3ccc(OC)cc3)cs2)nc2ccccc21 (stereo not given): yes
CC(C)Oc1c(Br)cc(Br)cc1/C=N/NC(N)=S: no
CC(O)CN(Cc1ccc(Cl)cc1)CC(C)O (stereo not given): no

What classification did CCOc1ccccc1C1CC(c2ccccc2)Nc2nc(N)nn21 (stereo not given) end up with in this test?
no
